compounds and their reported inhibition at 10 µM
# subjectOfTest: acetylcholinesterase (Homo sapiens)
# Construct: The supernatant (lysed RBC's) was stored frozen; from tissue; host or cells: lysed human red blood cells (supernatant of hypotonic lysis)
# Sequence (P22303 other isoform, or with tags, fused parts or gaps): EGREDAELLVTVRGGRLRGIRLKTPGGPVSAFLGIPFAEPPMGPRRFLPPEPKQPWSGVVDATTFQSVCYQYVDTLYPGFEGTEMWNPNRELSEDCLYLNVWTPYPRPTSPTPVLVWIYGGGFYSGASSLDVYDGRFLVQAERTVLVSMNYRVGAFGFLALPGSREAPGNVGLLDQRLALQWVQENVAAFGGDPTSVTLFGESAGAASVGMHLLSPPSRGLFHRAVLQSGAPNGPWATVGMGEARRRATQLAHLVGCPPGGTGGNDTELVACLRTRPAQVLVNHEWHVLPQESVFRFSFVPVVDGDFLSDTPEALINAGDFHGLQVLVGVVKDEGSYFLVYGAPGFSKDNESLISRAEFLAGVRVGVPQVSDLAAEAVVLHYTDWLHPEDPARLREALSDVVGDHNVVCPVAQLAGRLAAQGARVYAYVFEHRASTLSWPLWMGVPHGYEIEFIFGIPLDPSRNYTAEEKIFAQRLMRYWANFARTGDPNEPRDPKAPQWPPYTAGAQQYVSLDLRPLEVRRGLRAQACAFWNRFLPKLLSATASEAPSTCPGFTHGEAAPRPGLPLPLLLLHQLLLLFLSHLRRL
# assayProtocol: Inhibition of acetylcholinesterase (AChE) activity of lysed human red blood cells (Test Method 1)
# Type: biochemical
# settings: 10 μM; 60 min preincubation
reportedProperty: inhibition at 10 µM (%)

1. NP(N)(=O)NC(=O)c1cccc(C(F)(F)F)c1 [Test Compound 14]	25.7
2. NP(N)(=O)NC(=O)c1cccc(Oc2ccccc2)c1 [Test Compound 19]	15.8
3. CC(C)(C)c1ccc(C(=O)NP(N)(N)=O)cc1 [Test Compound 16]	3.1
4. CCCCOc1ccc(C(=O)NP(N)(N)=O)cc1 [Test Compound 22]	12.6
5. COc1ccc(C(=O)NP(N)(N)=O)cc1 [Test Compound 8]	3
6. NP(N)(=O)NC(=O)c1cccc([N+](=O)[O-])c1 [Test Compound 7]	23.9
7. CS(=O)(=O)c1ccc(C(=O)NP(N)(N)=O)cc1 [Test Compound 20]	20.5
8. NP(N)(=O)NC(=O)C=Cc1ccccc1 [Test Compound 23]	6.6
9. NP(N)(=O)NC(=O)Cc1ccccc1 [Test Compound 18]	17.1
10. NP(N)(=O)NC(=O)c1ccc([N+](=O)[O-])o1 [Test Compound 28]	46.9

###

# subjectOfTest: pseudocholinesterase (Homo sapiens)
# Construct: a 100 μl aliquot of human plasma; from tissue; host or cells: human plasma (EDTA blood, stored frozen)
# Sequence (P06276 29-602): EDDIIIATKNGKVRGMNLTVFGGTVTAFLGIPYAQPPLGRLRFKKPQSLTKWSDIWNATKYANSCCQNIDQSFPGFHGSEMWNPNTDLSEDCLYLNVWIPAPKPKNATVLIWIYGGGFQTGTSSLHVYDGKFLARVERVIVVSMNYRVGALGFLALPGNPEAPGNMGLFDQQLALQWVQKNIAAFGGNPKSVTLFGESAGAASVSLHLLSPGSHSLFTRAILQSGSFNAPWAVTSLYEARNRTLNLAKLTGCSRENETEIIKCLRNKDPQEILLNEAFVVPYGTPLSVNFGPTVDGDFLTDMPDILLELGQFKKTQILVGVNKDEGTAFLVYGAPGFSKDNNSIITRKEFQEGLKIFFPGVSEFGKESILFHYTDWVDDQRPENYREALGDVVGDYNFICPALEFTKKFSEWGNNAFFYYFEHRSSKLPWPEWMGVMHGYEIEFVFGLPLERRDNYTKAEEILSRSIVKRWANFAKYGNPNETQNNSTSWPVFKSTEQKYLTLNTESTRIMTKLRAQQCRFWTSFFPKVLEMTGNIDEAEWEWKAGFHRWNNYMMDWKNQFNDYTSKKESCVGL
# assayProtocol: Inhibition of human plasma pseudocholinesterase (PChE) activity (Test Method 1)
# Type: biochemical
# settings: 10 μM; 30 min preincubation
reportedProperty: inhibition at 10 µM (%)

1) Nc1ccc(S(=O)(=O)Nc2cccc(C(=O)NP(N)(N)=O)c2)cc1	99
2) NP(N)(=O)NC(=O)c1ccccc1	99.1
3) COc1ccc(C(=O)NP(N)(N)=O)cc1	96.3
4) CCCCOc1ccc(C(=O)NP(N)(N)=O)cc1	94.9

###

# subjectOfTest: pseudocholinesterase (Homo sapiens)
# Construct: a 100 μl aliquot of human plasma; from tissue; host or cells: human plasma (EDTA blood, stored frozen)
# assayProtocol: Inhibition of human plasma pseudocholinesterase (PChE) activity (Test Method 1)
# Type: biochemical
# settings: 10 μM; 30 min preincubation
reportedProperty: inhibition at 10 µM (%)

1) NP(N)(=O)NC(=O)C=Cc1ccccc1	73.2
2) NP(N)(=O)NC(=O)c1cccc(C(F)(F)F)c1	94.1
3) Cc1ccccc1C(=O)NP(N)(N)=O	89.2
4) NP(N)(=O)NC(=O)c1ccco1	98.7
5) NP(N)(=O)NC(=O)c1cccnc1	97.6
6) NP(N)(=O)NC(=O)c1cccc(F)c1	98.8
7) NP(N)(=O)NC(=O)c1ccc(Cl)cc1	98.7
8) NP(N)(=O)NC(=O)c1ccc([N+](=O)[O-])cc1	99
9) NP(N)(=O)NC(=O)c1cccc([N+](=O)[O-])c1	98.9
10) NP(N)(=O)NC(=O)c1c(F)cccc1F	98.7
11) NP(N)(=O)NC(=O)c1cccc(Oc2ccccc2)c1	98.3
12) NP(N)(=O)NC(=O)Cc1ccccc1	61.3
13) NP(N)(=O)NC(=O)c1ccccc1Cl	98.5
14) CC(C)(C)c1ccc(C(=O)NP(N)(N)=O)cc1	97.9
15) NP(N)(=O)NC(=O)c1ccc([N+](=O)[O-])o1	90.8
16) NP(N)(=O)NC(=O)c1ccccc1F	99.3
17) CS(=O)(=O)c1ccc(C(=O)NP(N)(N)=O)cc1	98.5
18) Nc1ccc(C(=O)NP(N)(N)=O)cc1	98.2
19) Cc1ccc(C(=O)NP(N)(N)=O)cc1	98.1
20) NP(N)(=O)NC(=O)c1ccc(F)cc1 [Test Compound 4, N-(diaminophosphinyl)-4-fluorobenzamide]	99.1
21) N#Cc1ccc(C(=O)NP(N)(N)=O)cc1	98.8

Numbers sourced from patent US4800194A.
